Test: Henry solubility constant Hcp at 298.15 K (mol/(m3 Pa))
Details: reference: Peng and Wan (1997)
For each of the molecules below, state its Henry solubility constant Hcp.
Simply state the number, no unit and no words.

Please report the recorded Henry solubility constant Hcp for c1ccccc1 [benzene] .
0.0019

Would you kindly repeat that for Cc1ccccc1 [methylbenzene] ?
0.0017

Now try ClC(Cl)=C(Cl)Cl [tetrachloroethene] .
0.00061

What do we get for ClC=C(Cl)Cl [trichloroethene] ?
0.0011

---

Assay: Henry solubility constant Hcp at 293 K (mol/(m3 Pa))
Conditions: reference: Chiang et al. (1998)
Kindly state Henry solubility constant Hcp at 293 K for each of the entries shown.

Which Henry solubility constant Hcp at 293 K reading was recorded for the molecule CC(Cl)(Cl)Cl [1,1,1-trichloroethane] ?
0.00071

// repeat for ClC=C(Cl)Cl [trichloroethene] and report
0.0011

And then C=C(Cl)Cl [1,1-dichloroethene] , what is it?
0.00044

Please give the result for ClC(Cl)=C(Cl)Cl [tetrachloroethene] too.
0.00062

Cool, now ClC(Cl)(Cl)Cl [tetrachloromethane]
0.0004

Try Clc1ccc(Cl)cc1 [1,4-dichlorobenzene] next.
0.0025

Consider next the molecule ClCCl [dichloromethane] in the same way.
0.0034

---

Please respond with reported Henry solubility constant Hcp for every item in the list.
Test: Henry solubility constant Hcp at 298.15 K (mol/(m3 Pa))
Conditions: reference: Turner et al. (1996)
// response body must contain only the number

// returns reported Henry solubility constant Hcp for input "CCc1ccccc1"
0.0011

Also need "Cc1ccccc1C" , thanks.
0.0014

// repeat for "Cc1ccccc1" and report
0.0014

Now the same for "CC(Cl)(Cl)Cl"
0.00048

Check "c1ccccc1" too.
0.0016

Repeat with "ClC=C(Cl)Cl"
0.00085

---

Test: Henry solubility constant Hcp at 298.15 K (mol/(m3 Pa))
Conditions: reference: Rochester and Symonds (1973)
recorded.endpoint: Henry solubility constant Hcp
Respond numerically, and do not add a unit to the figure.

Quick one: Henry solubility constant Hcp for "OC(C(F)(F)F)C(F)(F)F" ?
0.24

And "OCC(F)(F)C(F)F" ?
1.6

Try this compound next: "OCC(F)(F)C(F)(F)F"
0.45

Would you mind doing "OCC(F)(F)F" as well?
0.58

Now consider CC(O)C(F)(F)F (stereo not given) and answer again.
0.45

---

Experiment: Henry solubility constant Hcp at 298.15 K (mol/(m3 Pa))
Conditions: reference: Mackay et al. (1979)
recorded.endpoint: Henry solubility constant Hcp
I'd appreciate a reply containing only the number, no unit.

Consider the compound shown here: "c1ccc(-c2ccccc2)cc1" What is its recorded Henry solubility constant Hcp?
0.024

Again, but for "c1ccc2ccccc2c1"
0.02

Cool, now "CCc1ccccc1"
0.0012

Note, next up: "c1ccccc1"
0.0018

Repeat with "c1ccc2c(c1)ccc1ccccc12"
0.25

And for "Clc1ccccc1" ?
0.0026

Another compound to look at: "Cc1ccccc1"
0.0015

And "c1cc2c3c(cccc3c1)CC2" ?
0.068

---

Experiment: Henry solubility constant Hcp at 298.15 K (mol/(m3 Pa))
Conditions: reference: Gossett et al. (1985)
recorded.endpoint: Henry solubility constant Hcp

GET /values?readout=Henry solubility constant Hcp&item= CC(Cl)(Cl)Cl [1,1,1-trichloroethane]
0.00057

Then what about the compound ClCCl [dichloromethane] ?
0.0038

// query: ClC=C(Cl)Cl [trichloroethene]
0.0011

Here is the next compound: ClC(Cl)=C(Cl)Cl [tetrachloroethene]
0.00065

---

Assay: Henry solubility constant Hcp at 298.15 K (mol/(m3 Pa))
Details: reference: Kim and Kim (2016)
recorded.endpoint: Henry solubility constant Hcp
The reply should be a number, written without any unit.

Suppose we examine the compound "CCCCC(=O)O" ; what Henry solubility constant Hcp value has been reported?
24

Same question, "CCCCCC(=O)O" this time
9.9

Can you handle "CC(C)CC(=O)O" next?
27

Check "CCCCCCC(=O)O" too.
15

---

Experiment: Henry solubility constant Hcp at 298.15 K (mol/(m3 Pa))
Conditions: reference: Wen and Muccitelli (1979)
Would you mind telling me the reported Henry solubility constant Hcp of each entry?
Just the number, please, no unit attached.

Return reported Henry solubility constant Hcp; argument: "FC1(F)C(F)(F)C(F)(F)C1(F)F"
1.2e-06

Ok, now "FC(F)(F)C(F)(F)F"
5.6e-07

Next record, please: "FC(F)(F)F"
2e-06

Same again, this time with "FC(F)(F)C(F)(F)C(F)(F)F"
1.2e-07

---

Experiment: Henry solubility constant Hcp at 298.15 K (mol/(m3 Pa))
Conditions: reference: Kim et al. (2000)
Exercise: state measured Henry solubility constant Hcp for each of the compounds provided.

Which Henry solubility constant Hcp is reported for this compound? "CCCCCC(C)=O"
0.062

Another compound to check: CCCCOCCOC(C)=O [2-butoxyethyl ethanoate]
1.8

Then "CCCC(C)=O" ?
0.11

Same question, "CCCCOCCOCCO" this time
1400

Would you kindly repeat that for "CC(C)O" ?
1.1

Same read-out for "CN1CCCC1=O" ?
3100

Then "CC(=O)CC(C)C" ?
0.039

---

Assay: Henry solubility constant Hcp at 293 K (mol/(m3 Pa))
Settings: reference: Yu (1992)
Please provide measured Henry solubility constant Hcp at 293 K for the entries that follow.
// no unit, no text: just the number

Can you share its Henry solubility constant Hcp at 293 K? I mean this compound: "CCOCC"
0.0033

Okay, and "CC(C)=O" ?
0.17

Continue with "ClCCl"
0.0044

Same question for "CC(C)O" please.
0.98

Next up: "c1ccccc1"
0.0019

Now this one: "CC#N"
0.082

Also check "Cc1ccccc1"
0.0037

---

Experiment: Henry solubility constant Hcp at 298.15 K (mol/(m3 Pa))
Settings: reference: Jantunen and Bidleman (2006)
Can you tell me Henry solubility constant Hcp for the items I'm about to list?
Answer with a bare number; do not write a unit.

Which Henry solubility constant Hcp reading was recorded for the compound ClC1=C(Cl)[C@]2(Cl)[C@H]3[C@H](Cl)[C@@H](Cl)C[C@H]3[C@@]1(Cl)C2(Cl)Cl [trans-chlordane] ?
0.034

Further, for "ClC(Cl)=C(c1ccc(Cl)cc1)c1ccc(Cl)cc1" ?
0.029

What do you get for ClC1=C(Cl)[C@]2(Cl)[C@@H]3[C@@H](Cl)[C@@H](Cl)C[C@@H]3[C@@]1(Cl)C2(Cl)Cl [cis-chlordane] ?
0.037

Then what about the compound ClC1=C(Cl)C2(Cl)C3C(Cl)C(Cl)C(Cl)C3C1(Cl)C2(Cl)Cl (stereo not drawn) [trans-nonachlor] ?
0.031

---

Test: Henry solubility constant Hcp at 293 K (mol/(m3 Pa))
Details: reference: Pearson and McConnell (1975)
Please use 1.0 whenever Henry solubility constant Hcp at 293 K is not below 0.0004, and 0.0 whenever it is.

Check this molecule for Henry solubility constant Hcp at 293 K at or above 0.0004: "C=C(Cl)Cl"
0.0

Now the same for "CC(Cl)(Cl)Cl"
0.0

// query: "FC(F)(Cl)Cl"
0.0

Thanks! And "ClC=C(Cl)Cl" ?
1.0

Same thing, different molecule: "ClC(Cl)=C(Cl)Cl"
1.0

Request: "ClCCl"
1.0

Next record, please: "ClC(Cl)(Cl)Cl"
1.0

---

Assay: Henry solubility constant Hcp at 298.15 K (mol/(m3 Pa))
Conditions: reference: Vane and Giroux (2000)
Give Henry solubility constant Hcp for every item shown.
Give the figure by itself; no unit, no explanation.

Request the reported Henry solubility constant Hcp associated with "ClC(Cl)=C(Cl)Cl"
0.0006

Then "ClC=C(Cl)Cl" ?
0.0011

Another compound: "CC(Cl)(Cl)Cl"
0.00062

Moving on to the next compound: "Cc1ccccc1"
0.0019

---

Assay: Henry solubility constant Hcp at 293 K (mol/(m3 Pa))
Conditions: reference: Kames and Schurath (1995)
recorded.endpoint: Henry solubility constant Hcp at 293 K
No unit in the answer, only the number.

For the molecule CC(C)C(=O)OO[N+](=O)[O-] [peroxy-isobutyryl nitrate] , what Henry solubility constant Hcp at 293 K is on record?
0.0099

Also need CCCC(=O)OO[N+](=O)[O-] [nitro butaneperoxoate] , thanks.
0.023

Follow-up entry: CCC(=O)OO[N+](=O)[O-] [peroxypropionyl nitrate]
0.029

Likewise for CC(=O)OO[N+](=O)[O-] [peroxyacetyl nitrate] ?
0.04
